# experimental_system: T1, Rhesus macaque CD4-HIS (Acro Biosystems, Cat. CD4-C52H7) (rhesus macaque, UniProt P16003 26-390)
# T1 construct: Bought reagent; also called Rhesus CD4; rhesus CD4-HIS; not shown: His tag
# T1 sequence (P16003 26-390 limits assumed): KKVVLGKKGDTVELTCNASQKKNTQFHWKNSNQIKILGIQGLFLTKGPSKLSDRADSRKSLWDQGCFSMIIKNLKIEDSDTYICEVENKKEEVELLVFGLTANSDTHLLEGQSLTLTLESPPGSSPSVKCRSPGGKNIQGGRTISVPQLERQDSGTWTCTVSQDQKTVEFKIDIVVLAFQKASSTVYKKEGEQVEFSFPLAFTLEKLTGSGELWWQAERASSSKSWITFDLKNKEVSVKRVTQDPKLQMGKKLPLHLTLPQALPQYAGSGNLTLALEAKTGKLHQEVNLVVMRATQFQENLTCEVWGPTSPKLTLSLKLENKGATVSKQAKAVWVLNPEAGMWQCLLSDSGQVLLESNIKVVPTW
# assay_protocol: BLI (Octet Red384); Ab on anti-mouse Fc (AMC) sensor; rhesus CD4-HIS 100/50/25 nM; global 1:1 fit;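 also: antibodies loaded at 10 µg/mL, an unrelated mouse-derived antibody served as internal reference, curves fit over association and dissociation phases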
assay_metric: pKd
Numbers only, as −log10 of the molar value.

75110_12H19A (antibody, V domains shown, Tested as antibody purified from AlivaMab Mouse hybridoma supernatant (human variable domains, kappa; mouse Fc, captured on anti-mouse IgG Fc sensors); also called ADS75110 purified AMM Ab) VH: EVQLVESGGGLVQPGGSLRLSCAASGFTFSSYWMSWVRQAPGQGLEWVANINEDGNEKYHVDSVKGRLTISRDNAKNSLYLQMNSLRGVDTAVYFCAREGGQWLALDYWGQGALVTVSS VL: DIQMTQSPSSVSASVGDRVSITCRASQGISSWLAWYQQKPGKAPKLLIYGASGLQSGVPSRFSGSGSGTDFTLTISSLQPEDFATYYCQQANSFPWTFGQGTKVEIK: 7.85

Here is another binder to look at.
**Q:** # pKd lookup, item 75110_08A13A (antibody, V domains shown, Tested as antibody purified from AlivaMab Mouse hybridoma supernatant (human variable domains, kappa; mouse Fc, captured on anti-mouse IgG Fc sensors); also called ADS75110 purified AMM Ab) VH: EVQLVESGGGLVQPGGSLRLSCAASGFIFSSYWMSWVRQAPGKGLEWVANIKQDGSEKYYMDSVKGRFTISRDNAKNSLYLQMNSLRAEDTAVYYCARDNSYYYYGMDVWGQGTTVTVSS VL: AIQMTQSPSSLSASVGDRVTITCRASQGIRDDLGWYQQKPGKAPKLLIFAASSLQSGVPSSFSGSGSGTDFTLTISSLQPEDFATYYCLHHYNYPYTFGQGTKLEIK
**A:** 8.29
